Sequence of the target: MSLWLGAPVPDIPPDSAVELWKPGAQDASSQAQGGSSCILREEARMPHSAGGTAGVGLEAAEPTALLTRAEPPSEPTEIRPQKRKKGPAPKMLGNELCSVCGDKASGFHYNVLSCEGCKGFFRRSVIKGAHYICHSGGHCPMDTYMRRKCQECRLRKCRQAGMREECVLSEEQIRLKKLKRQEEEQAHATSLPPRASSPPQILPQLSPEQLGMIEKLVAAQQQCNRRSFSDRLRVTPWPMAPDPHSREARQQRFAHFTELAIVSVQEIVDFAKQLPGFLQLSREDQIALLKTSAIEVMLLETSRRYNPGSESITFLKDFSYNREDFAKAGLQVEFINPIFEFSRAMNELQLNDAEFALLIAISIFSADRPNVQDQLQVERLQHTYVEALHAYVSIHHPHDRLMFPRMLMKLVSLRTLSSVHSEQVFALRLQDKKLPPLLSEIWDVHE
observation_type: RE

// solved cases for RE follow
smiles_entry: O=C(O)Cc1cccc(OCCCN(Cc2cccc(C(F)(F)F)c2Cl)CC(c2ccccc2)c2ccccc2)c1
observation_type: RE
readout_number: 1
--
smiles_entry: COc1ccc(CN(CCCOc2cccc(CC(N)=O)c2)CC(c2ccccc2)c2ccccc2)cc1F
observation_type: RE
readout_number: 0.7
--
smiles_entry: COc1ccc(CN(CCCOc2cccc(CC(N)=O)c2)CC(c2ccccc2)c2ccccc2)cc1
observation_type: RE
readout_number: 0.8

P = O=S(=O)(c1ccccc1)N(CC(F)(F)F)c1ccc(C(O)(C(F)(F)F)C(F)(F)F)cc1
Q = COc1ccc(CN(CCCOc2cccc(CC(N)=O)c2)CC(c2ccccc2)c2ccccc2)c(OC)c1
Returns the identifier with the smallest measured RE among P and Q . Provide the label of your selected option as the answer. Q

----------
Assay system Oxysterols receptor LXR-alpha (Homo sapiens) (UniProt Q13133); read-out recorded as RE.
observation_type: RE

Would you please look over these solved cases?
compound: COc1ccc(CN(CCCOc2cccc(CC(N)=O)c2)CC(c2ccccc2)c2ccccc2)c(F)c1
RE: 0.4
//
compound: NC(=O)Cc1cccc(OCCCN(Cc2ccc(F)c(C(F)(F)F)c2)CC(c2ccccc2)c2ccccc2)c1
RE: 0.4
//
compound: COc1ccc(CN(CCCOc2cccc(CC(N)=O)c2)CC(c2ccccc2)c2ccccc2)c(OC)c1
RE: 0.6
//
compound: O=C(O)Cc1cccc(OCCCN(Cc2cccc(C(F)(F)F)c2Cl)CC(c2ccccc2)c2ccccc2)c1
RE: 1.7
//
compound: C[C@H](CC[C@@H]1OC1(C)C)[C@H]1CC[C@H]2[C@@H]3CC=C4C[C@@H](O)CC[C@]4(C)[C@H]3CC[C@]12C [24(S),25-EPOXYCHOLESTEROL]
RE: 1

P = COc1ccc(CN(CCCOc2cccc(CC(=O)O)c2)CC(c2ccccc2)c2ccccc2)cc1
Q = COc1ccc(CN(CCCOc2cccc(CC(N)=O)c2)CC(c2ccccc2)c2ccccc2)cc1F
R = O=S(=O)(c1ccccc1)N(CC(F)(F)F)c1ccc(C(O)(C(F)(F)F)C(F)(F)F)cc1
S = NC(=O)Cc1cccc(OCCCN(Cc2cccc(C(F)(F)F)c2Cl)CC(c2ccccc2)c2ccccc2)c1
T = NC(=O)Cc1cccc(OCCCN(Cc2cccc(C(F)(F)F)c2)CC(c2ccccc2)c2ccccc2)c1
Output the entries ranked by RE from maximum down to minimum. Enter labels, ranked according to the request. R, S, P, Q, T

----------
biological target: Oxysterols receptor LXR-alpha (Homo sapiens, UniProt Q13133); assay: Effective concentration in LXR alpha-Gal4 receptor gene assay
pEC50: −log10 of the molar value.
observation_type: pEC50

compound: NC(=O)Cc1cccc(OCCCN(Cc2ccc(F)c(C(F)(F)F)c2)CC(c2ccccc2)c2ccccc2)c1
readout_number: 6.02
//
compound: NC(=O)Cc1cccc(OCCCN(Cc2cccc(C(F)(F)F)c2)CC(c2ccccc2)c2ccccc2)c1
readout_number: 6.19
//
compound: O=C(O)Cc1cccc(OCCCN(Cc2cccc(C(F)(F)F)c2Cl)CC(c2ccccc2)c2ccccc2)c1
readout_number: 6.72
//
compound: C[C@H](CC[C@@H]1OC1(C)C)[C@H]1CC[C@H]2[C@@H]3CC=C4C[C@@H](O)CC[C@]4(C)[C@H]3CC[C@]12C [24(S),25-EPOXYCHOLESTEROL]
readout_number: 5.52
//
compound: COc1ccc(CN(CCCOc2cccc(CC(N)=O)c2)CC(c2ccccc2)c2ccccc2)c(F)c1
readout_number: 6.15

A = COc1ccc(CN(CCCOc2cccc(CC(N)=O)c2)CC(c2ccccc2)c2ccccc2)cc1F
B = NC(=O)Cc1cccc(OCCCN(Cc2cccc(C(F)(F)F)c2Cl)CC(c2ccccc2)c2ccccc2)c1
C = COc1ccc(CN(CCCOc2cccc(CC(=O)O)c2)CC(c2ccccc2)c2ccccc2)cc1
D = COc1ccc(CN(CCCOc2cccc(CC(N)=O)c2)CC(c2ccccc2)c2ccccc2)c(OC)c1
Arrange these compounds by their pEC50, starting with the largest number. API: response body holds the labels in the requested order. B, A, D, C
(B: 6.37, A: 6.04, D: 5.40, C: 5.10)

----------
Target chain: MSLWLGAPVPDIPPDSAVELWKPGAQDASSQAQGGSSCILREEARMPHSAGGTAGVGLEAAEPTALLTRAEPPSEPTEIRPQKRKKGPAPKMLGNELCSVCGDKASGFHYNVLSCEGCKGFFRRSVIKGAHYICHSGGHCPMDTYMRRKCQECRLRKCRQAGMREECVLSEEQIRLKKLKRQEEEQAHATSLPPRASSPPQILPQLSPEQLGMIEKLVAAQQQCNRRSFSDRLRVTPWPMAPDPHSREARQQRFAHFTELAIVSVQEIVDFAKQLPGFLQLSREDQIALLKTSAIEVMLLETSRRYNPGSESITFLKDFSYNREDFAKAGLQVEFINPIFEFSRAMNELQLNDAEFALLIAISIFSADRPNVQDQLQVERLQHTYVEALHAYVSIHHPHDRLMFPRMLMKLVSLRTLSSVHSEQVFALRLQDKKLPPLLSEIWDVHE
observation_type: RE

compound: COc1ccc(CN(CCCOc2cccc(CC(=O)O)c2)CC(c2ccccc2)c2ccccc2)cc1
RE: 0.8
--
compound: C[C@H](CC[C@@H]1OC1(C)C)[C@H]1CC[C@H]2[C@@H]3CC=C4C[C@@H](O)CC[C@]4(C)[C@H]3CC[C@]12C [24(S),25-EPOXYCHOLESTEROL]
RE: 1
--
compound: COc1ccc(CN(CCCOc2cccc(CC(N)=O)c2)CC(c2ccccc2)c2ccccc2)c(F)c1
RE: 0.9

----------
target: UniProt:Q13133; experiment: Ligand-dependent recruitment of steroid receptor co-activator 1 (SRC1) to Liver X receptor-alpha
observation_type: EC50 (nM)

Example results:
compound: COc1ccc(CN(CCCOc2cccc(CC(=O)O)c2)CC(c2ccccc2)c2ccccc2)cc1
units: nM
EC50: 860
--
compound: COc1ccc(CN(CCCOc2cccc(CC(N)=O)c2)CC(c2ccccc2)c2ccccc2)cc1F
units: nM
EC50: 250
--
compound: NC(=O)Cc1cccc(OCCCN(Cc2cccc(C(F)(F)F)c2)CC(c2ccccc2)c2ccccc2)c1
units: nM
EC50: 85
--
compound: O=C(O)Cc1cccc(OCCCN(Cc2cccc(C(F)(F)F)c2Cl)CC(c2ccccc2)c2ccccc2)c1
units: nM
EC50: 125
--
compound: COc1ccc(CN(CCCOc2cccc(CC(N)=O)c2)CC(c2ccccc2)c2ccccc2)cc1
units: nM
EC50: 260

I = COc1ccc(CN(CCCOc2cccc(CC(N)=O)c2)CC(c2ccccc2)c2ccccc2)c(F)c1
II = NC(=O)Cc1cccc(OCCCN(Cc2cccc(C(F)(F)F)c2Cl)CC(c2ccccc2)c2ccccc2)c1
# returns the entry with the larger EC50; inputs I and II I would appreciate it if you answered with the label of your choice. I
(I: 190 nM, II: 45 nM)

----------
test: the half-life (t1/2) in mice after a dose of 10 mg/kg; assay type: ADME, organism-based; parameters: dose 10 mg/kg; conditions: mouse, in vivo
observation_type: half-life (h)
Please reply with the bare figure in h and do not write the unit itself.

Value of half-life reported for the molecule O=C(O)Cc1cccc(OCCCN(Cc2cccc(C(F)(F)F)c2Cl)CC(c2ccccc2)c2ccccc2)c1 is 2

----------
experiment: Oral bioavailability after administration of a dose of 10 mg/kg; format: ADME, organism-based; conditions: in vivo
observation_type: bioavailability (%)
Return type: number; implicit unit %.

The recorded bioavailability for O=C(O)Cc1cccc(OCCCN(Cc2cccc(C(F)(F)F)c2Cl)CC(c2ccccc2)c2ccccc2)c1 is 70

----------
assay: Cmax in mice after 10 mg/kg oral dose; format: ADME, organism-based; set-up: dose 10 mg/kg, route oral; details: mouse, in vivo
observation_type: Cmax (ng/mL)
State the answer as a number, implicitly in ng/mL.

Lookup result for O=C(O)Cc1cccc(OCCCN(Cc2cccc(C(F)(F)F)c2Cl)CC(c2ccccc2)c2ccccc2)c1 ; measured Cmax: 12700
